target: Luciferin 4-monooxygenase (Photinus pyralis, UniProt P08659); test: Inhibition of recombinant firefly luciferase after 20 mins by luminescence assay
pIC50: −log10 of the molar value.
observation type: pIC50

1. Fc1ccccc1C1=NO[C@H](Cc2ccccc2)C1 :: 9.02
2. Oc1ccccc1C1=NO[C@@H](Cc2ccccc2)C1 :: 5.95
3. Oc1ccc(C2=NO[C@H](Cc3ccccc3)C2)cc1 :: 6.50
4. Fc1ccc(C[C@@H]2CC(c3ccc(Cl)cc3)=NO2)cc1 :: 9.06
5. COc1cccc(C[C@@H]2CC(c3ccc(Cl)cc3)=NO2)c1 :: 7.77
6. N#Cc1ccc(C2=NO[C@H](Cc3ccccc3)C2)cc1 :: 9.05
7. Clc1ccccc1C1=NOC(Cc2ccccc2)C1 (racemic) :: 9.03
8. COc1ccc(C2=NOC(C)(Cc3ccccc3)C2)cc1 (racemic) :: 7.66
9. COc1ccc(C2=NO[C@H](Cc3ccccc3)C2)cc1 :: 9.54
10. Fc1cccc(C2=NO[C@H](Cc3ccccc3)C2)c1 :: 9.02

---

Recorded inhibition for the following compounds
biological target: UniProt:P08659; experiment: Inhibition of recombinant firefly luciferase at 10 uM after 20 mins by luminescence assay
observation type: inhibition (%)

1) Fc1ccc(C2=NO[C@@H](Cc3ccccc3)C2)cc1 :: 85.6
2) COc1ccc(C2=NO[C@H](Cc3ccc(F)cc3)C2)cc1 :: 100
3) Oc1ccc(C2=NO[C@@H](Cc3ccccc3)C2)cc1 :: 42.8
4) COc1ccc(C2=NO[C@@H](Cc3ccccc3OC)C2)cc1 :: 67.1
5) COc1ccc(C2=NO[C@@H](Cc3ccccc3)O2)cc1 :: 98.6
6) Clc1ccc(C2=NO[C@H](Cc3ccccc3)C2)cc1 :: 99.8
7) COc1ccc(C2=NO[C@H](Cc3ccccc3)C2)cc1 :: 99.8
8) Clc1ccc(C2=NO[C@@H](Cc3ccccc3)C2)cc1 :: 88.3
9) COc1cccc(C2=NO[C@@H](Cc3ccccc3)C2)c1 :: 75.3
10) COc1ccccc1CC1CC(c2ccc(Cl)cc2)=NO1 (racemic) :: 91.8
11) COc1ccc(C2=NO[C@H](CCc3ccccc3)C2)cc1 :: 96
12) COc1ccc(CC2CC(c3ccc(Cl)cc3)=NO2)cc1OC (racemic) :: 2.2
13) COc1ccc(C2=NO[C@H](Cc3cccc(OC)c3)C2)cc1 :: 98.7
14) COc1ccc(C[C@H]2CC(c3ccc(OC)cc3)=NO2)cc1 :: 3.1
15) COc1cccc(C[C@H]2CC(c3ccc(Cl)cc3)=NO2)c1 :: 33.6
16) Fc1ccc(C[C@@H]2CC(c3ccc(Cl)cc3)=NO2)cc1 :: 99.2
17) c1ccc(C[C@@H]2CC(c3ccc4ccccc4c3)=NO2)cc1 :: 97
18) Oc1cccc(C2=NO[C@H](Cc3ccccc3)C2)c1 :: 99.7
19) Oc1ccc(C2=NO[C@H](Cc3ccccc3)C2)cc1 :: 93.3
20) COc1ccccc1C1=NO[C@H](Cc2ccccc2)O1 :: 98.2
21) Clc1ccc(C2=NO[C@H](Cc3cccc4ccccc34)C2)cc1 :: 40.9
22) c1ccc(C[C@@H]2CC(c3ccccc3)=NO2)cc1 :: 99.5
23) COc1ccc(C[C@@H]2CC(c3ccc(OC)cc3)=NO2)cc1 :: 37.4
24) COc1cccc(C[C@@H]2CC(c3ccc(Cl)cc3)=NO2)c1 :: 96.7
25) COc1ccc(C2=NO[C@H](Cc3ccccc3)O2)cc1 :: 99.5
26) CCc1ccc(C[C@H]2CC(c3ccc(Cl)cc3)=NO2)cc1 :: 50.2
27) CC1(Cc2ccccc2)CC(c2ccc(Cl)cc2)=NO1 (racemic) :: 95.8
28) Oc1ccccc1C1=NO[C@H](Cc2ccccc2)C1 :: 98.4
29) N#Cc1ccc(C2=NO[C@H](Cc3ccccc3)C2)cc1 :: 99.2
30) N#Cc1ccc(C2=NO[C@@H](Cc3ccccc3)C2)cc1 :: 88.3
31) Oc1cccc(C2=NO[C@@H](Cc3ccccc3)C2)c1 :: 71.5
32) Clc1ccccc1C1=NOC(Cc2ccccc2)C1 (racemic) :: 99.8
33) CCc1ccc(C[C@@H]2CC(c3ccc(Cl)cc3)=NO2)cc1 :: 29.4
34) COc1ccccc1C1=NO[C@@H](Cc2ccccc2)O1 :: 63.3
35) COc1ccc(C[C@@H]2CC(c3ccc(Cl)cc3)=NO2)cc1 :: 30.4
36) Clc1ccc(C2=NOC(CCc3ccccc3)C2)cc1 (racemic) :: 64.2
37) CC(C)c1ccc(C[C@@H]2CC(c3ccc(Cl)cc3)=NO2)cc1 :: 0.7
38) Fc1ccc(C2=NO[C@H](Cc3ccccc3)C2)cc1 :: 99.5
39) Fc1ccccc1C1=NO[C@H](Cc2ccccc2)C1 :: 99.3
40) O=[N+]([O-])c1ccc(C2=NOC(Cc3ccccc3)C2)cc1 (racemic) :: 96.4

---

target: Luciferin 4-monooxygenase (Photinus pyralis) (UniProt P08659); assay: Inhibition of recombinant firefly luciferase at 1 nM after 20 mins by luminescence assay
Sequence (P08659 whole entry): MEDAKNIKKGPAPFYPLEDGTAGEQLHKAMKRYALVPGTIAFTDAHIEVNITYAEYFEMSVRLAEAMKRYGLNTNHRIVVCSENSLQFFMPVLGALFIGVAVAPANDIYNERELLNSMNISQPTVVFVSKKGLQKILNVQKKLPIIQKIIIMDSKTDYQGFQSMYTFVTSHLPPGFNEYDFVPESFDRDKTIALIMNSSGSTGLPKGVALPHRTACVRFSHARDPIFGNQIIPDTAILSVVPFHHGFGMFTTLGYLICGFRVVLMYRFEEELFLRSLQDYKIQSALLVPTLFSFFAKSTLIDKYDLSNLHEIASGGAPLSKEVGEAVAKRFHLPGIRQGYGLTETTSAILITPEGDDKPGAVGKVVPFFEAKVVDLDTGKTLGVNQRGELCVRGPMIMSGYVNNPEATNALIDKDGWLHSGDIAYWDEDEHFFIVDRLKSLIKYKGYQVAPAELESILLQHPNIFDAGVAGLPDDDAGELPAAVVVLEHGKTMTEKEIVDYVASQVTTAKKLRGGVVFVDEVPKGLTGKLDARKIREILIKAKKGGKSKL
So basically every entry gets a class from its inhibition, ranges being one = under 5%, two = from 5% up to 40%, three = 40% and over

1) c1ccc(C[C@@H]2CC(c3ccc4ccccc4c3)=NO2)cc1 :: two
2) Clc1cccc(C2=NOC(Cc3ccccc3)C2)c1 (racemic) :: two
3) COc1cccc(C[C@@H]2CC(c3ccc(Cl)cc3)=NO2)c1 :: two
4) COc1ccc(C[C@@H]2CC(c3ccc(OC)cc3)=NO2)cc1 :: one
5) COc1ccccc1C1=NO[C@H](Cc2ccccc2)C1 :: three
6) COc1ccc(C2=NO[C@H](Cc3ccccc3)O2)cc1 :: three
7) Clc1ccc(C2=NO[C@H](Cc3cccc4ccccc34)C2)cc1 :: one
8) COc1ccc(C2=NO[C@@H](Cc3cccc(OC)c3)C2)cc1 :: one
9) COc1ccccc1C1=NO[C@@H](Cc2ccccc2)C1 :: two
10) Oc1ccc(C2=NO[C@H](Cc3ccccc3)C2)cc1 :: two
11) CC(C)c1ccc(C[C@H]2CC(c3ccc(Cl)cc3)=NO2)cc1 :: one
12) COc1ccc(C2=NO[C@H](Cc3cccc(OC)c3)C2)cc1 :: three
13) Fc1ccc(C2=NO[C@H](Cc3ccccc3)C2)cc1 :: three
14) Oc1ccccc1C1=NO[C@H](Cc2ccccc2)C1 :: three
15) COc1ccc(C2=NO[C@@H](Cc3ccccc3)O2)cc1 :: three
16) Clc1ccc(C2=NOC(CCc3ccccc3)C2)cc1 (racemic) :: one
17) c1ccc(C[C@H]2CC(c3ccccc3)=NO2)cc1 :: two

---

biological target: Luciferin 4-monooxygenase (Photinus pyralis) (UniProt P08659); experiment: Inhibition of recombinant firefly luciferase at 10 uM after 20 mins by luminescence assay
So basically every entry gets a class from its inhibition, ranges being interval 1 = under 60%, interval 2 = from 60% up to 90%, interval 3 = 90% and over

1) COc1ccc(C2=NO[C@@H](Cc3ccc(F)cc3)C2)cc1 :: interval 1
2) Clc1ccc(C2=NO[C@@H](Cc3cccc4ccccc34)C2)cc1 :: interval 1
3) COc1ccc(C2=NO[C@H](Cc3ccccc3OC)C2)cc1 :: interval 3
4) Oc1ccccc1C1=NO[C@@H](Cc2ccccc2)C1 :: interval 2
5) c1ccc(C[C@H]2CC(c3cccc4ccccc34)=NO2)cc1 :: interval 1
6) Fc1ccccc1C1=NOC(Cc2ccccc2)O1 (racemic) :: interval 3
7) COc1cccc(C2=NO[C@H](Cc3ccccc3)C2)c1 :: interval 3
8) c1ccc(C[C@H]2CC(c3ccccc3)=NO2)cc1 :: interval 3
9) Fc1ccc(C[C@H]2CC(c3ccc(Cl)cc3)=NO2)cc1 :: interval 2
10) COc1ccc(C2=NO[C@@H](Cc3ccccc3)C2)cc1 :: interval 2
11) Oc1ccc(/C=C/c2cc(O)cc(O)c2)cc1 :: interval 3
12) CC(C)c1ccc(C[C@H]2CC(c3ccc(Cl)cc3)=NO2)cc1 :: interval 1
13) COc1ccc(C2=NO[C@@H](CCc3ccccc3)C2)cc1 :: interval 1
14) c1ccc(C[C@@H]2CC(c3cccc4ccccc34)=NO2)cc1 :: interval 2
15) Clc1ccccc1C1=NOC(Cc2ccccc2)O1 (racemic) :: interval 3
16) COc1ccc(C[C@H]2CC(c3ccc(Cl)cc3)=NO2)cc1 :: interval 1
17) Fc1cccc(C2=NO[C@H](Cc3ccccc3)C2)c1 :: interval 3
18) c1ccc(C[C@H]2CC(c3ccc4ccccc4c3)=NO2)cc1 :: interval 1
19) Fc1ccccc1C1=NO[C@@H](Cc2ccccc2)C1 :: interval 2
20) COc1ccc(C2=NOC(C)(Cc3ccccc3)C2)cc1 (racemic) :: interval 3
21) Fc1cccc(C2=NO[C@@H](Cc3ccccc3)C2)c1 :: interval 2
22) COc1ccc(C2=NO[C@@H](Cc3cccc(OC)c3)C2)cc1 :: interval 1
23) COc1ccccc1C1=NO[C@H](Cc2ccccc2)C1 :: interval 3
24) COc1ccccc1C1=NO[C@@H](Cc2ccccc2)C1 :: interval 1
25) Clc1cccc(C2=NOC(Cc3ccccc3)C2)c1 (racemic) :: interval 3

Entry source: ChEMBL document CHEMBL2321784
